# Tested on: U251 CNS
# Test name: NCI tumour cell line growth inhibition, 48 h
Measured property: TGI

{"Compound": "COc1cc2ccc1-c1cc(ccc1O)CC1c3cc4c(cc3CCN1C)Oc1c(OC)cc3c(c1O4)C(C2)N(C)CC3 (stereo not given)", "Reported result": "3.07 µM"}
{"Compound": "COc1ccccc1CNC(=O)C1c2ccccc2C(=O)N(CC(C)C)C1c1cccs1 (stereo not given)", "Reported result": "> 100 µM"}
{"Compound": "O=c1n(-c2ccccc2)c(=O)n2n1C1CCC2CC1", "Reported result": "> 100 µM"}
{"Compound": "Nc1nc(Cl)cc(NCC2(CO)CCC2)n1", "Reported result": "> 100 µM"}
{"Compound": "O=[N+]([O-])c1cc(Cl)cc2c1nc(NCCO)c1ccccc12", "Reported result": "> 100 µM"}
